Listed here are compounds together with their documented MIC90.
# System: Trichophyton mentagrophytes
# method description: Antifungal activity against Trichophyton mentagrophytes ATCC 24198 after 6 days
# Type: functional
# experimental parameters: ATCC 24198, 144 h

item smiles	target	MIC90
CC(C)CCCc1ccc2c(c1)C(=O)C(Cl)=C(Cl)C2=O	Trichophyton mentagrophytes	4 µg/mL
CC(C)=CCCc1ccc2c(c1)C(=O)C=CC2=O	Trichophyton mentagrophytes	> 32 µg/mL
CC1(C)CCCc2cc3c(cc21)C(=O)C=CC3=O	Trichophyton mentagrophytes	1.3 µg/mL
CN(C/C=C/C#CC(C)(C)C)Cc1cccc2ccccc12	Trichophyton mentagrophytes	0.03 µg/mL
CC(C)CCCc1ccc2c(c1)C(=O)C(Br)=C(Br)C2=O	Trichophyton mentagrophytes	> 32 µg/mL

Problem: Give recorded MIC90 with Trichophyton mentagrophytes for the following compound: Cc1c2c(nc3ccccc13)C(=O)c1cc(CCCC(C)C)ccc1C2=O
Result: > 32 µg/mL

Problem: Give recorded MIC90 with Trichophyton mentagrophytes for the following compound: CCNC1=CC(=O)c2cc3c(cc2C1=O)C(C)(C)CCC3
Result: 5 µg/mL

Problem: Give recorded MIC90 with Trichophyton mentagrophytes for the following compound: Cc1cc(C)c2c3c(oc2c1)C(=O)c1cc(CCCC(C)C)ccc1C3=O
Result: > 32 µg/mL

Problem: Give recorded MIC90 with Trichophyton mentagrophytes for the following compound: CC(C)=CCCc1ccc2c(c1)C(=O)C(Cl)=CC2=O
Result: 6.4 µg/mL

Problem: Give recorded MIC90 with Trichophyton mentagrophytes for the following compound: CC(=O)NC1=C(Cl)C(=O)c2cc3c(cc2C1=O)CCCC3(C)C
Result: 3.2 µg/mL

Problem: Give recorded MIC90 with Trichophyton mentagrophytes for the following compound: CC1(C)CCCc2cc3c(cc21)C(=O)C(Cl)=C(Cl)C3=O
Result: 6.1 µg/mL

Problem: Give recorded MIC90 with Trichophyton mentagrophytes for the following compound: CC(C)=CCCc1ccc2c(c1)C(=O)C(Cl)=C(NCc1ccccc1)C2=O
Result: > 32 µg/mL

Problem: Give recorded MIC90 with Trichophyton mentagrophytes for the following compound: COc1ccc(SC2=CC(=O)c3ccc(CCCC(C)C)cc3C2=O)cc1
Result: > 32 µg/mL

Problem: Give recorded MIC90 with Trichophyton mentagrophytes for the following compound: CC1(C)CCCc2cc3c(cc21)C(=O)C=C(Cl)C3=O
Result: 3.2 µg/mL

Problem: Give recorded MIC90 with Trichophyton mentagrophytes for the following compound: CCOC1=C(OCC)C(=O)c2cc3c(cc2C1=O)CCCC3(C)C
Result: > 32 µg/mL

Problem: Give recorded MIC90 with Trichophyton mentagrophytes for the following compound: COc1ccc(NC2=C(Cl)C(=O)c3cc(CCCC(C)C)ccc3C2=O)cc1
Result: 5 µg/mL

Problem: Give recorded MIC90 with Trichophyton mentagrophytes for the following compound: COc1ccc(NC2=C(Br)C(=O)c3cc(CCCC(C)C)ccc3C2=O)cc1
Result: > 32 µg/mL

Problem: Give recorded MIC90 with Trichophyton mentagrophytes for the following compound: Cc1ccc2[nH]c3c(c2c1)C(=O)c1ccc(CCCC(C)C)cc1C3=O
Result: > 32 µg/mL

Problem: Give recorded MIC90 with Trichophyton mentagrophytes for the following compound: COc1cc(NC2=C(Cl)C(=O)c3cc4c(cc3C2=O)C(C)(C)CCC4)cc(OC)c1OC
Result: > 32 µg/mL

Problem: Give recorded MIC90 with Trichophyton mentagrophytes for the following compound: C[C@@H]1[C@H](O)[C@@H](C)/C=C/C=C/C=C/C=C/C=C/C=C/C=C/[C@H](O[C@@H]2O[C@H](C)[C@@H](O)[C@H](N)[C@@H]2O)C[C@@H]2O[C@](O)(C[C@@H](O)C[C@@H](O)[C@H](O)CC[C@@H](O)C[C@@H](O)CC(=O)O[C@H]1C)C[C@H](O)[C@H]2C(=O)O
Result: < 0.004 µg/mL

----------
# method description: Selectivity index, ratio of IC50 for african green monkey Vero cells to IC50 for Aspergillus fumigatus ATCC 204305
# Format: toxicity, cell-based
# experimental parameters: read-out: Ratio IC50
measured attribute: selectivity ratio
Simply state the number, no unit and no words.

item smiles	selectivity ratio
CC(=O)NC1=C(Cl)C(=O)c2cc3c(cc2C1=O)CCCC3(C)C	0.9

Lab note: next compound to report on.
Problem: Reported selectivity ratio, compound CC(C)=CCCc1ccc2c(c1)C(=O)C(Cl)=CC2=O : ____
Result: 1.4

----------
# method description: Selectivity index, ratio of IC50 for african green monkey Vero cells to IC50 for Candida parapsilosis ATCC 22019
# Format: toxicity, cell-based
measured attribute: selectivity ratio

Problem: Reported selectivity ratio, compound CC1(C)CCCc2cc3c(cc21)C(=O)C(Cl)=C(Cl)C3=O : ____
Result: > 12.5

----------
Listed here are compounds together with their documented selectivity ratio.
# method description: Selectivity index, ratio of IC50 for african green monkey Vero cells to IC50 for Candida krusei ATCC 6258
# Format: toxicity, cell-based
# experimental parameters: read-out: Ratio IC50

compound	selectivity ratio
CCC(C)n1ncn(-c2ccc(N3CCN(c4ccc(OCC5COC(Cn6cncn6)(c6ccc(Cl)cc6Cl)O5)cc4)CC3)cc2)c1=O (stereo not drawn)	> 100
CC1(C)CCCc2cc3c(cc21)C(=O)C(Cl)=C(Cl)C3=O	> 25

Problem: Reported selectivity ratio, compound CC1(C)CCCc2cc3c(cc21)C(=O)C=C(Cl)C3=O : ____
Result: > 12.5
